Origin of values: paper PMC10288510

assay: CF assay: cargo dose-response with COSAN 2 as carrier; format: in vitro ADME; settings: EYPC⊃CF liposomes, 4 μM COSAN 2, pH 7.4
Peptide text beside a SMILES is read from it.

# molecule, transport of cargo by COSAN 2 (in words)
rows = [
    ("CC(C)C[C@H](NC(=O)[C@@H](NC(=O)[C@@H](N)Cc1ccc(O)cc1)[C@@H](C)O)C(=O)N[C@H](C(=O)N[C@H](C(=O)N[C@@H](CCCCN)C(=O)O)C(C)C)[C@@H](C)O [Tyr-Thr-Leu-Thr-Val-Lys] (H-YTLTVK-OH)", "not transported"),
    ("N[C@@H](Cc1c[nH]c2ccccc12)C(=O)NCC(=O)NCC(=O)NCC(=O)NCC(=O)NCC(=O)NCC(=O)O [Trp-Gly6, tryptophan-hexaglysine] (H-WGGGGGG-OH)", "not transported"),
    ("NCCCC[C@H](NC(=O)[C@H](CCCCN)NC(=O)[C@H](CCCCN)NC(=O)[C@@H](N)Cc1c[nH]c2ccccc12)C(=O)O [Trp-(Lys)3, tryptophan-trilysine] (H-WKKK-OH)", "not transported"),
]
